As shown below, each of these compounds has a reported Plant response rating, Soybean value.
- Test system: soybean
- assayMethodText: Test B pre/postemergence soybean
- Format: in vivo, Glycine max
- details: Rate 250 g/ha, Postemergence; scale 0 to 10, 0 is no effect, 10 is complete control

These recorded examples may help you get a feel for the data.
CC(C)N(Cc1ccccc1)C(=O)n1oc(=O)n(C(C)C)c1=O [Compound 165] | 6
CC(C)N(C(=O)n1oc(=O)n(C2CCCCC2)c1=O)c1ccccc1 [Compound 112] | 4
CC(C)N(C(=O)n1oc(=O)n(-c2cccc3c2CCCC3)c1=O)c1ccc(F)cc1 [Compound 90] | 4

Hello, please tell me recorded Plant response rating, Soybean for this one: CC(C)N(C(=O)n1oc(=O)n(-c2cnn(C)c2)c1=O)c1ccccc1 [Compound 123]
4

* * *

Reported values of Plant response rating, Green foxtail for individual entries
- System: Green foxtail
- assayMethodText: Test D green foxtail
- Format: in vivo
- details: Rate 250 g/ha; Preemergence; 0 to 100 scale
Lab note: record just the number, no unit beside it.

CC(C)N(C(=O)n1oc(=O)n(C2CCCCC2)c1=O)c1ccccc1 [Compound 112] | 98
CC(C)N(C(=O)n1oc(=O)n(Cc2ccccc2)c1=O)c1ccc(F)cc1 [Compound 78] | 100
COc1ccccc1-n1c(=O)on(C(=O)N(c2ccc(F)cc2)C(C)C)c1=O [Compound 30] | 100

Next up:
Provide only the value of recorded Plant response rating, Green foxtail for CC(C)N(C(=O)n1oc(=O)n(C)c1=O)c1ccc(F)cc1 [Compound 138]
100

* * *

- Test system: morningglory
- assayMethodText: Test B pre/postemergence morningglory
- Assay type: in vivo, Ipomoea hederacea
- details: Preemergence, Rate 125 g/ha
reportedEndpoint: Morningglory plant response rating (0 to 10 scale)
No unit in the answer, please; the number alone is enough.

CSCCn1c(=O)on(C(=O)N(c2ccc(F)cc2)C(C)C)c1=O | 0

Turning now to a further molecule:
Give Morningglory plant response rating (0 to 10 scale) for this entry on morningglory: "CCOc1nc(C(F)(F)F)c(Cn2c(=O)on(C(=O)N(c3ccccc3)C(C)C)c2=O)s1"
0

* * *

- Test system: soybean
- assayMethodText: Test B pre/postemergence soybean
- Assay type: in vivo, Glycine max
- details: Rate 500 g/ha, Postemergence; scale 0 to 10, 0 no effect, 10 complete control
Listed here are compounds together with their documented Soybean plant response rating.
Output: the number by itself.

Use the examples below as a reference point.
COc1ccccc1Cn1c(=O)on(C(=O)N(c2ccccc2)C(C)C)c1=O | 5
CC(C)N(C(=O)n1oc(=O)n(-c2cccnc2)c1=O)c1ccc(F)cc1 | 1
Cc1cccc(C)c1-n1c(=O)on(C(=O)N(C(C)C)C2C=CCCC2)c1=O (stereo not drawn) | 4

Tell me its Soybean plant response rating given "Cc1cc(C)c(-n2c(=O)on(C(=O)N(c3ccc(Cl)cc3)C(C)C)c2=O)c(C)c1" as the entry.
5

Given "CC(C)N(C(=O)n1oc(=O)n(-c2cnn(C)c2Cl)c1=O)c1ccc(F)cc1" , respond with its Soybean plant response rating.
2

Specify measured Soybean plant response rating for "CC(C)N(C(=O)n1oc(=O)n(C2CCCC2)c1=O)c1ccccc1" .
7

* * *

- Test system: crabgrass
- assayMethodText: Test B pre/postemergence crabgrass
- Assay type: in vivo, Digitaria sanguinalis
- details: Rate 500 g/ha, Postemergence; scale 0 to 10, 0 no effect, 10 complete control
reportedEndpoint: Crabgrass plant response rating
Provide a numeric answer; units are not to be included.

Examples from the recorded data:
Cc1cccc(C)c1-n1c(=O)on(C(=O)N(C(C)C)C2C=CCCC2)c1=O (stereo not drawn) | 3
CC(C)N(C(=O)n1oc(=O)n(-c2cnn(C)c2)c1=O)c1ccccc1 | 9
CC(C)N(C(=O)n1oc(=O)n(Cc2ccccc2)c1=O)c1ccc(F)cc1F | 8
COC(=O)CCCn1c(=O)on(C(=O)N(c2ccc(F)cc2)C(C)C)c1=O | 5
CCc1ccc(N(C(=O)n2oc(=O)n(-c3ccccc3C)c2=O)C(C)C)cc1 | 2

Then there is this compound:
Give Crabgrass plant response rating for "CC(C)N(C(=O)n1oc(=O)n(-c2cccc3c2CCCC3)c1=O)c1ccc(F)cc1"
4
